- tested_target: Helios (Homo sapiens, UniProt Q96SW2+Q9UKS7)
- Sequence (Q9UKS7 whole entry): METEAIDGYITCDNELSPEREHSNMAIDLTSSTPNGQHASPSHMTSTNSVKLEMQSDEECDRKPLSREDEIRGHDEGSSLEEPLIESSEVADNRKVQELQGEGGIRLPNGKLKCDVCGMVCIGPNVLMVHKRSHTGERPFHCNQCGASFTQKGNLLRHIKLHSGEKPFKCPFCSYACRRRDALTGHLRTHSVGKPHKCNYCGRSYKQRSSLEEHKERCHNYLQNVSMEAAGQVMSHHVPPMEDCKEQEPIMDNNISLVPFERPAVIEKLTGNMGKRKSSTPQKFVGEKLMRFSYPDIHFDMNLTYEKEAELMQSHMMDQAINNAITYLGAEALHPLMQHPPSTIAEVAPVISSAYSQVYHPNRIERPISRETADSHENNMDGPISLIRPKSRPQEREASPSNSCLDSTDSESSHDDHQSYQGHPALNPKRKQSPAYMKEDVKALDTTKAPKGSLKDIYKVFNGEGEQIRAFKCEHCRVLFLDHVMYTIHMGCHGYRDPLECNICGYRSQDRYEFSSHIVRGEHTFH
- Sequence (Q96SW2 whole entry): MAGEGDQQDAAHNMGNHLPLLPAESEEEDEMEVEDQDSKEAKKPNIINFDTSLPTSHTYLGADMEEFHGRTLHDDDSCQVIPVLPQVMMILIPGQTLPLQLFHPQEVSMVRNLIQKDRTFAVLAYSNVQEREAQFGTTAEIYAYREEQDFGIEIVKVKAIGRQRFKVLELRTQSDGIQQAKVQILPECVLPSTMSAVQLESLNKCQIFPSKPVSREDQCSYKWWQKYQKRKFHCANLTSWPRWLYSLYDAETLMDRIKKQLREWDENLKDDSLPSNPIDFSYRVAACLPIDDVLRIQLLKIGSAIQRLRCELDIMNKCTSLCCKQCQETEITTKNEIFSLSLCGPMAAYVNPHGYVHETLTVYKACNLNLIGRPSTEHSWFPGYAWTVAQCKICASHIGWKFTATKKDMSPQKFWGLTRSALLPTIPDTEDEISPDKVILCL
- Sequence (Q16531 whole entry partner): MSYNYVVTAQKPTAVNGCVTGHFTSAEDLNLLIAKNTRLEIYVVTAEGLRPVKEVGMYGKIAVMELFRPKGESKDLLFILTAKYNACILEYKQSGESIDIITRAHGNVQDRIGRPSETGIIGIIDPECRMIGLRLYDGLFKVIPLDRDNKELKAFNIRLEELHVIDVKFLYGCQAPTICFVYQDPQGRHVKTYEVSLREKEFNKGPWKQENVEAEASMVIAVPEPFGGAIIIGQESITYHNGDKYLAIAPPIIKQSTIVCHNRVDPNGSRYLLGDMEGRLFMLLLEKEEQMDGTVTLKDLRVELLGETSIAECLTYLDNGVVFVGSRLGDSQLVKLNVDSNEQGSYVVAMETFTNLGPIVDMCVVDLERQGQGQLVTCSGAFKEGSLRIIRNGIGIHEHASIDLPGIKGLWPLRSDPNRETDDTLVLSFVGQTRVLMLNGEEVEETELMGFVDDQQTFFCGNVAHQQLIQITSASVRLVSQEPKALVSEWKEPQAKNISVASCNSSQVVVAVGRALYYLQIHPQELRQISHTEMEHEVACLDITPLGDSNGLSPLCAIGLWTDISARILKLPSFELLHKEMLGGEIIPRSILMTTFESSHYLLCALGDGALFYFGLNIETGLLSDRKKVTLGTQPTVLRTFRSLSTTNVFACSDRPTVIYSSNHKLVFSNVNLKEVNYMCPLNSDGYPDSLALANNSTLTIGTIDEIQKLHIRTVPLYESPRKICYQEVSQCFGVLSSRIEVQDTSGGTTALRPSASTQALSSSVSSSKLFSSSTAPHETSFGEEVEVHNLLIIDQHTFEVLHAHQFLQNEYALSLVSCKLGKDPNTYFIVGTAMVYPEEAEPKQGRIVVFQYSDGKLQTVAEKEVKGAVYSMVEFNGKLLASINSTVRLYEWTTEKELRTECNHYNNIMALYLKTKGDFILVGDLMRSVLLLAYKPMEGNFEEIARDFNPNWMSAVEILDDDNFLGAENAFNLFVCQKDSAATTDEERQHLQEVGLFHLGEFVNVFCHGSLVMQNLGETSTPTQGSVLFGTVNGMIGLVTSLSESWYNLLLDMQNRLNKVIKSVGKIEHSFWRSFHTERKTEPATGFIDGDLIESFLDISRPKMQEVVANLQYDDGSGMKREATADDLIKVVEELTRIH
- measurement_description: Helios Human T Regulatory Cells Degradation Assay
- Type: cell-based
- Design: fluorescently labelled antibodies against Helios in 1× Permeabilization buffer; endogenous in cells; host or cells: cryopreserved human T regulatory cells
- condition: cryopreserved human T regulatory cells, incubated 20 hours, Helios-APC antibody staining, flow cytometry; read-out: hTreg Helios DC50
For each record, write down the corresponding DC50.
Field format: number, assumed nM, no unit text.

[Q] Could you share which DC50 value was measured for CC(C)(O)[C@H]1CCN(Cc2ccnc(-c3ccc4c(c3)CN(C3CCC(=O)NC3=O)C4=O)c2)C1 (stereo partly shown) ?
[A] 4.2

[Q] Quick one: DC50 of O=C1CCC(N2Cc3cc(-c4nccc(CN5CC[C@H](O)C5)c4F)ccc3C2=O)C(=O)N1 (stereo partly shown) ?
[A] 23.5

[Q] Requested field: DC50. Item: O=C1CCC(N2Cc3cc(-c4nccc(CN5CCC(O)(c6ccc(F)cc6)C5)c4F)ccc3C2=O)C(=O)N1 (stereo not shown)
[A] 8410

[Q] Quick one: DC50 of CC(C)(O)C1CN(Cc2ccnc(-c3ccc4c(c3)CN(C3CCC(=O)NC3=O)C4=O)c2F)C1 (stereo not shown) ?
[A] 18.4

[Q] Need DC50, item C[C@@H]1c2c(ccc(-c3cc(CN4CCC(O)(c5ccccc5)C4)ccn3)c2F)C(=O)N1[C@H]1CCC(=O)NC1=O (stereo partly shown)
[A] 367

[Q] # query: DC50 of entry Cc1cc(C2CCCN2Cc2ccnc(-c3ccc4c(c3)CN(C3CCC(=O)NC3=O)C4=O)c2F)on1 (stereo not shown)
[A] 242

[Q] So what does the record say about DC50 for CC(=O)N1CCC2(CN(Cc3ccnc(-c4ccc5c(c4)CN(C4CCC(=O)NC4=O)C5=O)c3F)C2)C1 (stereo not shown) ?
[A] 280
